Ref: the NIST ThermoML archive (doi:10.1016/j.jct.2006.07.017)

We begin with a simple list: items and their reported mass density.
# TEST CONDITIONS: 298.15 K; 101.33 kPa; Liquid
READOUT KIND: mass density (kg/m3)

- COMPOUND: "Cc1ccc(C)cc1"
  EXPERIMENTAL VALUE: 856.58
- COMPOUND: "Cc1cccc(C)c1"
  EXPERIMENTAL VALUE: 859.83
- COMPOUND: "CN(C)C=O [dimethylformamide]"
  EXPERIMENTAL VALUE: 943.85
- COMPOUND: "Cc1ccccc1C"
  EXPERIMENTAL VALUE: 875.73

###

# EXPERIMENT NOTES: refractive index (Na D-line) (dimensionless)
# TEST CONDITIONS: 298.15 K; 101.33 kPa; Liquid; Standard Abbe refractometry
Listed below: refractive index values for each entry.
READOUT KIND: refractive index

- MOLECULE: "Cc1ccccc1C [1,2-dimethylbenzene]"
  EXPERIMENTAL VALUE: 1.5057
- MOLECULE: "Cc1ccc(C)cc1 [1,4-dimethylbenzene]"
  EXPERIMENTAL VALUE: 1.4958
- MOLECULE: "Cc1cccc(C)c1 [1,3-dimethylbenzene]"
  EXPERIMENTAL VALUE: 1.4973
- MOLECULE: "CN(C)C=O [dimethylformamide]"
  EXPERIMENTAL VALUE: 1.4307
